# test: Metabolic stability in Han Wistar rat hepatocytes assessed as intrinsic clearance measured per 10^6 cells at 1 uM after 120 mins by LC-MS/MS analysis
# Type: ADME, cell-based, Hepatocyte
# test_parameters: read-out: CLH
endpoint: hepatocyte CLint at 1 µM
Phrase the answer as number then unit, nothing more needed.

Prompt: For the compound shown here, COc1cc(F)c(O[C@H]2CC[C@@](C)(C(=O)O)CC2)cc1C(=O)N[C@@H]1[C@H]2CC[C@H](C2)[C@@H]1C(=O)Nc1ccc(F)c(S(F)(F)(F)(F)F)c1 , give the reported hepatocyte CLint at 1 µM.
Completion: 24 µL/min/1e6 cells

Prompt: For the compound shown here, COc1cc(F)c(-c2ccc(C(=O)O)cc2)cc1C(=O)N[C@H]1[C@@H](C(=O)Nc2cccc(S(=O)(=O)C(F)(F)F)c2)[C@@H]2C=C[C@H]1C2 (racemic) , give the reported hepatocyte CLint at 1 µM.
Completion: 16 µL/min/1e6 cells

Prompt: For the compound shown here, COc1cc(F)c(O[C@H]2CC[C@@H](C(=O)O)CC2)cc1C(=O)N[C@@H]1[C@H]2CC[C@H](C2)[C@@H]1C(=O)Nc1cccc(S(=O)(=O)C(F)(F)F)c1 , give the reported hepatocyte CLint at 1 µM.
Completion: 23 µL/min/1e6 cells

Prompt: For the compound shown here, CC(C)Oc1ccccc1C(=O)Nc1ccccc1C(=O)Nc1cccc(S(=O)(=O)C(F)(F)F)c1 , give the reported hepatocyte CLint at 1 µM.
Completion: 22 µL/min/1e6 cells

Prompt: For the compound shown here, COc1cc(F)c(O[C@H]2CC[C@@](C)(C(=O)O)CC2)cc1C(=O)N[C@H]1[C@@H]2CC[C@@H](C2)[C@H]1C(=O)Nc1ccc(F)c(S(F)(F)(F)(F)F)c1 , give the reported hepatocyte CLint at 1 µM.
Completion: 14 µL/min/1e6 cells

* * *

# test: Lipophilicity, logD of the compound in 1-octanol and phosphate buffer at pH 7.4 incubated for 3 hrs by shake flask method based LC/MS/MS analysis
# Type: physicochemical
# test_parameters: 1-octanol/phosphate buffer, pH 7.4
endpoint: logD at 3 h
Number, no unit, nothing else.

Prompt: For the compound shown here, COc1cc(F)c(O[C@H]2CC[C@@](C)(C(=O)O)CC2)cc1C(=O)N[C@@H]1[C@H]2CC[C@H](C2)[C@@H]1C(=O)Nc1ccc(F)c(S(F)(F)(F)(F)F)c1 , give the reported logD at 3 h.
Completion: 4.9

Prompt: For the compound shown here, COc1ccccc1C(=O)N[C@H]1[C@@H](C(=O)Nc2cccc(S(=O)(=O)C(F)(F)F)c2)[C@H]2C=C[C@@H]1C2 (racemic) , give the reported logD at 3 h.
Completion: 3.5

Prompt: For the compound shown here, COc1ccccc1C(=O)N[C@@H]1CCCC[C@@H]1C(=O)Nc1cccc(S(=O)(=O)C(F)(F)F)c1 (racemic) , give the reported logD at 3 h.
Completion: 4.4

Prompt: For the compound shown here, COc1cc(F)c(-c2ccc(C(=O)O)cc2)cc1C(=O)N[C@H]1[C@@H](C(=O)Nc2cccc(S(=O)(=O)C(F)(F)F)c2)[C@@H]2C=C[C@H]1C2 (racemic) , give the reported logD at 3 h.
Completion: 3.4

Prompt: For the compound shown here, COc1cc(F)c(O[C@H]2CC[C@H](C(=O)O)CC2)cc1C(=O)N[C@H]1[C@@H](C(=O)Nc2cccc(S(=O)(=O)C(F)(F)F)c2)[C@@H]2C=C[C@H]1C2 , give the reported logD at 3 h.
Completion: 3

Prompt: For the compound shown here, COc1cc(F)c(OCCCC(=O)O)cc1C(=O)N[C@H]1[C@@H](C(=O)Nc2cccc(S(=O)(=O)C(F)(F)F)c2)[C@@H]2C=C[C@H]1C2 (racemic) , give the reported logD at 3 h.
Completion: 2.5

Prompt: For the compound shown here, COc1cc(F)c(-c2ccc(C(=O)O)cc2)cc1C(=O)N[C@@H]1[C@H]2CC[C@H](C2)[C@@H]1C(=O)Nc1cccc(S(=O)(=O)C(F)(F)F)c1 , give the reported logD at 3 h.
Completion: 3.6

Prompt: For the compound shown here, COc1cc(F)c(O[C@H]2CC[C@@H](C(=O)O)CC2)cc1C(=O)N[C@@H]1[C@H]2CC[C@H](C2)[C@@H]1C(=O)Nc1cccc(S(=O)(=O)C(F)(F)F)c1 , give the reported logD at 3 h.
Completion: 3.5

Prompt: For the compound shown here, COc1cc(F)c(O[C@H]2CC[C@@H](C(=O)O)CC2)cc1C(=O)N[C@@H]1[C@H]2CC[C@H](C2)[C@@H]1C(=O)Nc1cccc(C(F)F)c1 , give the reported logD at 3 h.
Completion: 2.8

Prompt: For the compound shown here, COc1cc(F)c(-c2ccc(CC(=O)O)cc2)cc1C(=O)N[C@H]1[C@@H](C(=O)Nc2cccc(S(=O)(=O)C(F)(F)F)c2)[C@@H]2C=C[C@H]1C2 (racemic) , give the reported logD at 3 h.
Completion: 3.2

Prompt: For the compound shown here, COc1cc(F)c(O[C@H]2CC[C@@H](C(=O)O)CC2)cc1C(=O)N[C@H]1[C@H](C(=O)Nc2ccc(F)c(C(F)(F)F)c2)[C@@H]2C=C[C@H]1C2 , give the reported logD at 3 h.
Completion: 3.5

Prompt: For the compound shown here, COc1cc(F)c(O[C@H]2CC[C@@H](C(=O)O)CC2)cc1C(=O)N[C@H]1[C@@H](C(=O)Nc2cccc(S(=O)(=O)C(F)(F)F)c2)[C@@H]2C=C[C@H]1C2 , give the reported logD at 3 h.
Completion: 3.25

* * *

Kindly state IC50 for each of the entries shown.
# test: Cytotoxicity against human HepG2 cells cultured under glucose condition assessed as reduction in cell viability
# Format: toxicity, cell-based

Prompt: For the compound shown here, COc1cc(F)c(O[C@H]2CC[C@@](C)(C(=O)O)CC2)cc1C(=O)N[C@@H]1[C@H]2CC[C@H](C2)[C@@H]1C(=O)Nc1ccc(F)c(S(F)(F)(F)(F)F)c1 , give the reported IC50.
Completion: 68 µM

Prompt: For the compound shown here, COc1cc(F)c(O[C@H]2CC[C@@](C)(C(=O)O)CC2)cc1C(=O)N[C@H]1[C@@H]2CC[C@@H](C2)[C@H]1C(=O)Nc1ccc(F)c(S(F)(F)(F)(F)F)c1 , give the reported IC50.
Completion: 134 µM

* * *

# test: Kinetic solubility of compound at pH 7.4 incubated for 24 hrs by shake-flask method based LC-MS/MS analysis
# Assay type: physicochemical
# test_parameters: buffer, read-out: Kinetic_solubility
endpoint: solubility kinetic at 24 h (µM)
Respond numerically; units are µM and should not be typed.

Prompt: For the compound shown here, CC(C)Oc1ccccc1C(=O)Nc1ccccc1C(=O)Nc1cccc(S(=O)(=O)C(F)(F)F)c1 , give the reported solubility kinetic at 24 h.
Completion: 1

* * *

Kindly state logD at 3 h for each of the entries shown.
# test: Lipophilicity, logD of the compound in 1-octanol and phosphate buffer at pH 7.4 incubated for 3 hrs by shake flask method based LC/MS/MS analysis
# Format: physicochemical
# test_parameters: 1-octanol/phosphate buffer, pH 7.4
Number, no unit, nothing else.

Prompt: For the compound shown here, COc1cc(F)c(-c2ncc(C(=O)O)s2)cc1C(=O)N[C@H]1[C@@H](C(=O)Nc2cccc(S(=O)(=O)C(F)(F)F)c2)[C@@H]2C=C[C@H]1C2 (racemic) , give the reported logD at 3 h.
Completion: 1.7

Prompt: For the compound shown here, COc1cc(F)c(O[C@H]2CC[C@@](C)(C(=O)O)CC2)cc1C(=O)N[C@H]1[C@@H]2CC[C@@H](C2)[C@H]1C(=O)Nc1ccc(F)c(S(F)(F)(F)(F)F)c1 , give the reported logD at 3 h.
Completion: 4.5

Prompt: For the compound shown here, COc1cc(F)c(-c2ccc(C[C@H](C(=O)O)N(C)C)cc2)cc1C(=O)N[C@@H]1[C@H]2CC[C@H](C2)[C@@H]1C(=O)Nc1cccc(S(=O)(=O)C(F)(F)F)c1 , give the reported logD at 3 h.
Completion: 3.7

Prompt: For the compound shown here, COc1cc(F)c(O[C@H]2CC[C@@H](C(=O)O)CC2)cc1C(=O)N[C@@H]1[C@H]2CC[C@H](C2)[C@@H]1C(=O)Nc1ccncc1 , give the reported logD at 3 h.
Completion: 1.6

Prompt: For the compound shown here, COc1ccccc1C(=O)N[C@@H]1CCC[C@@H]1C(=O)Nc1cccc(S(=O)(=O)C(F)(F)F)c1 (racemic) , give the reported logD at 3 h.
Completion: 4.9

Prompt: For the compound shown here, COc1cc(F)c(OCCCCC(=O)O)cc1C(=O)N[C@H]1[C@@H](C(=O)Nc2cccc(S(=O)(=O)C(F)(F)F)c2)[C@@H]2C=C[C@H]1C2 (racemic) , give the reported logD at 3 h.
Completion: 2.9

* * *

Kindly state Emax for each of the entries shown.
# system_under_test: Relaxin receptor 1 (Homo sapiens) (UniProt Q9HBX9)
# Sequence (whole entry): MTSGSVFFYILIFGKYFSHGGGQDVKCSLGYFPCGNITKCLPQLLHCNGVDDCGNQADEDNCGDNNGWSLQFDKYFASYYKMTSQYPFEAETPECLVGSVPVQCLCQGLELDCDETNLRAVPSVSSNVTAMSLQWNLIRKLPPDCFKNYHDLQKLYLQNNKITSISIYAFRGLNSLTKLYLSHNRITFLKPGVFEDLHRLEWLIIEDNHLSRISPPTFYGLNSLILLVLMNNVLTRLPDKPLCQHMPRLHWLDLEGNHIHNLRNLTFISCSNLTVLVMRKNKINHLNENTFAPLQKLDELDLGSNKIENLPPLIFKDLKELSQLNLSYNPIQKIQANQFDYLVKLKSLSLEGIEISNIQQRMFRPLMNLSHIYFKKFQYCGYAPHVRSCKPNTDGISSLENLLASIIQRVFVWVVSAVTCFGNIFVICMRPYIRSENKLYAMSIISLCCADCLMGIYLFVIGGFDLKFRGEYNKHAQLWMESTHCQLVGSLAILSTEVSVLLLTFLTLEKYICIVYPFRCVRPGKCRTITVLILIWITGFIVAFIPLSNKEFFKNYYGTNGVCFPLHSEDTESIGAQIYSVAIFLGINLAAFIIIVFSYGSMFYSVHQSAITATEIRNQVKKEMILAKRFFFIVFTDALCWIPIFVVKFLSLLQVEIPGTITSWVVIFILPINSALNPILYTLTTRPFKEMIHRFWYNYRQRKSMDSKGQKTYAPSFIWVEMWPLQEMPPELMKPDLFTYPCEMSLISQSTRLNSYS
# test: Agonist activity at human RXFP1 expressed in T-Rex-CHO-K1 cells assessed as stimulation of cAMP production by measuring maximal efficacy at 50 uM incubated for 45 mins by HTRF assay relative to control
# Assay type: functional, cell-based
# test_parameters: filed as agonist
Phrase the answer as number then unit, nothing more needed.

Prompt: Requested read-out Emax, target or system Relaxin receptor 1 (Homo sapiens) (UniProt Q9HBX9), entry COc1cc(F)c(O[C@H]2CC[C@@](C)(C(=O)O)CC2)cc1C(=O)N[C@@H]1[C@H]2CC[C@H](C2)[C@@H]1C(=O)Nc1cccc(S(=O)(=O)C(F)(F)F)c1
Completion: 109%

Prompt: Requested read-out Emax, target or system Relaxin receptor 1 (Homo sapiens) (UniProt Q9HBX9), entry COc1cc(F)c(O[C@H]2CC[C@H](C(=O)O)CC2)cc1C(=O)N[C@H]1[C@@H](C(=O)Nc2cccc(S(=O)(=O)C(F)(F)F)c2)[C@@H]2C=C[C@H]1C2
Completion: 81%

Prompt: Requested read-out Emax, target or system Relaxin receptor 1 (Homo sapiens) (UniProt Q9HBX9), entry COc1cc(F)c(OCCCCC(=O)O)cc1C(=O)N[C@H]1[C@@H](C(=O)Nc2cccc(S(=O)(=O)C(F)(F)F)c2)[C@@H]2C=C[C@H]1C2 (racemic)
Completion: 119%
